The origin of these recorded values is ChEMBL document CHEMBL2029339.

Entries and their IC50
Target: Smoothened (Mus musculus)
Assay: Inhibition of Smo-mediated Hh signaling in mouse Shh-light2 cells by luciferase reporter gene assay
Report only the number, with the unit nM understood.

Sample records with IC50:
IC50 for COc1cc(C(=O)NC(=N)Nc2ccc(Cl)c(C(=O)Nc3ccccc3)c2)cc(OC)c1OC ?
160

IC50 for COc1cc(C(=O)NC(=N)Nc2ccc(C)c(C(=O)Nc3ccccc3)c2)cc(OC)c1OC ?
190

IC50 for COc1cc(C(=O)NC(=S)Nc2ccc(C)c(NC(=O)c3ccc(-c4ccccc4)cc3)c2)cc(OC)c1OC ?
41

IC50 for COc1cc(C(=O)NC(=S)Nc2ccc(Cl)c(NC(=O)c3ccccc3)c2)cc(OC)c1OC ?
190

IC50 for COc1cc(C(=O)NC(=S)Nc2cccc(NC(=O)c3ccc(-c4ccccc4)cc3)c2)cc(OC)c1OC ?
90

IC50 for COc1cc(C(=O)NC(=S)Nc2ccc(C)c(NC(=O)c3ccc(-c4ccc(F)cc4)cc3)c2)cc(OC)c1OC ?
29

IC50 for COc1cc(C(=O)NC(=O)Nc2cccc(NC(=O)c3cc4ccccc4[nH]3)c2)cc(OC)c1OC ?
110

Then this molecule:
IC50 for COc1cc(C(=O)NC(=N)Nc2ccc(Cl)c(NC(=O)c3ccc(-c4ccccc4)cc3)c2)cc(OC)c1OC ?
70
